Tested on: Staphylococcus aureus
Test Method Notes: Antibacterial activity against gram positive methicillin-sensitive Staphylococcus aureus ATCC 6538 assessed as inhibition of bacterial growth incubated for 20 hrs by microtiter plate method
Format: functional
Overview of reported MIC across a group of compounds:

{"Cpd Smiles": "C=C(NC(=O)C(=C)NC(=O)c1csc(-c2ccc3c(n2)-c2csc(n2)[C@@H]2CSC(=O)c4[nH]c5cccc(c5c4C)COC(=O)CC[C@H](NC(=O)c4csc(n4)/C(=C/C)NC(=O)[C@H]([C@@H](C)O)NC(=O)c4csc-3n4)c3nc(cs3)C(=O)N2)n1)C(=O)O", "Study System": "Staphylococcus aureus", "MIC (ng/mL)": 16}
{"Cpd Smiles": "C=C(NC(=O)c1csc(-c2nc3c(cc2O)-c2nc(cs2)C(=O)N[C@@H]([C@@H](C)O)C(=O)N/C(=C\\C)c2nc(cs2)C(=O)N[C@H]2C[C@H](O)C(=O)OCc4cccc5[nH]c(c(C)c45)C(=O)SC[C@H](NC(=O)c4csc2n4)c2nc-3cs2)n1)C(N)=O", "Study System": "Staphylococcus aureus", "MIC (ng/mL)": 2}
{"Cpd Smiles": "C=C(NC(=O)c1csc(-c2nc3c(cc2O)-c2nc(cs2)C(=O)N[C@@H]([C@@H](C)O)C(=O)N/C(=C\\C)c2nc(cs2)C(=O)N[C@H]2CCC(=O)OCc4cccc5sc(c(C)c45)C(=O)SC[C@H](NC(=O)c4csc2n4)c2nc-3cs2)n1)C(N)=O", "Study System": "Staphylococcus aureus", "MIC (ng/mL)": 4}
{"Cpd Smiles": "C=C(NC(=O)C(=C)NC(=O)c1csc(-c2ccc3c(n2)-c2csc(n2)[C@@H]2CSC(=O)c4sc5cccc(c5c4C)COC(=O)CC[C@H](NC(=O)c4csc(n4)/C(=C/C)NC(=O)[C@H]([C@@H](C)O)NC(=O)c4csc-3n4)c3nc(cs3)C(=O)N2)n1)C(=O)O", "Study System": "Staphylococcus aureus", "MIC (ng/mL)": 16}
{"Cpd Smiles": "C=C(NC(=O)c1csc(-c2nc3c(cc2O)-c2nc(cs2)C(=O)N[C@@H]([C@@H](C)O)C(=O)N/C(=C\\C)c2nc(cs2)C(=O)N[C@H]2C[C@H](O)C(=O)OCc4cccc5sc(c(C)c45)C(=O)SC[C@H](NC(=O)c4csc2n4)c2nc-3cs2)n1)C(N)=O", "Study System": "Staphylococcus aureus", "MIC (ng/mL)": 4}
